- test-name: Pharmacokinetic study in 10 healthy subjects: intravenous infusion vs oral capsules
- Type: in vivo, human
- assay-conditions: human, plasma; 200 mg oral; from LSGM A/B ratio of CLIV to CLIV/F; read-out: bioavailability of the oral capsule
test-readout: bioavailability (%)
Numbers only, in %.

Query string: What measured bioavailability goes with NC12CC3CC(CC(C3)C1)C2 ?
Result string: 122

====

- test-name: Pharmacokinetic study in 10 healthy subjects: intravenous infusion vs oral capsules
- Assay type: in vivo, human
- assay-conditions: human; Treatment B: single 200 mg oral dose as 2×100 mg capsules, fasted healthy subjects, plasma; read-out: mean T1/2 (converted)
test-readout: half-life (h)
Give bare numbers, in h.

Query string: What measured half-life goes with NC12CC3CC(CC(C3)C1)C2 ?
Result string: 14.6
